Test system: Escherichia coli TOP10
Experiment: shrunken log2 fold change of peptide-encoding DNA abundance (4.5 h post-induction vs induction); higher = less antimicrobial activity (less host growth inhibition)
Details: time post-induction: 4.5 h; library: site-saturation at positions 5, 18, 19, 20
property-measured: shrunken log2 fold change
Respond using a number only.

            input_sequence          property_measured  value_measured
0  RRIRSRPPRLPRPRPRPIEWPRP  shrunken log2 fold change          0.0274

Provide measured shrunken log2 fold change value, entry: RRIRWRPPRLPRPRPRPGHHPRP
0.0195

Provide measured shrunken log2 fold change value, entry: RRIRFRPPRLPRPRPRPYFLPRP
-0.628

Provide measured shrunken log2 fold change value, entry: RRIRERPPRLPRPRPRPFTFPRP
-0.275

Provide measured shrunken log2 fold change value, entry: RRIRKRPPRLPRPRPRPIQSPRP
-0.0332

Provide measured shrunken log2 fold change value, entry: RRIRVRPPRLPRPRPRPFPTPRP
0.756

Provide measured shrunken log2 fold change value, entry: RRIRDRPPRLPRPRPRPNKPPRP
-0.0743

Provide measured shrunken log2 fold change value, entry: RRIRVRPPRLPRPRPRPCLWPRP
0.0452

Provide measured shrunken log2 fold change value, entry: RRIRERPPRLPRPRPRPTRMPRP
0.084

Provide measured shrunken log2 fold change value, entry: RRIRCRPPRLPRPRPRPRLSPRP
0.0865

Provide measured shrunken log2 fold change value, entry: RRIRWRPPRLPRPRPRPKGIPRP
-0.0761

Provide measured shrunken log2 fold change value, entry: RRIRCRPPRLPRPRPRPCYVPRP
-1.08

Provide measured shrunken log2 fold change value, entry: RRIRKRPPRLPRPRPRPGSDPRP
0.737

Provide measured shrunken log2 fold change value, entry: RRIRERPPRLPRPRPRPMQQPRP
-0.0321

Provide measured shrunken log2 fold change value, entry: RRIRERPPRLPRPRPRPWRMPRP
-0.13

Provide measured shrunken log2 fold change value, entry: RRIRSRPPRLPRPRPRPQTHPRP
0.901

Provide measured shrunken log2 fold change value, entry: RRIRDRPPRLPRPRPRPMVVPRP
-0.0202

Provide measured shrunken log2 fold change value, entry: RRIRKRPPRLPRPRPRPSSVPRP
-0.378

---

Tested on: Escherichia coli TOP10;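 also: peptides expressed intracellularly from a pBAD plasmid library in pooled LB shake-flask culture, induced with 0.3% L-arabinose, DNA abundance read by NGS, three biological replicates, DESeq2 with apeglm shrinkage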
Assay: shrunken log2 fold change of peptide-encoding DNA abundance (4.5 h post-induction vs induction); higher = less antimicrobial activity (less host growth inhibition)
Details: time post-induction: 4.5 h; library: site-saturation at positions 5, 18, 19, 20
Listing of entries alongside the reported shrunken log2 fold change.

>>> print(df.to_string())
            input_sequence  value_measured
0  RRIRWRPPRLPRPRPRPGFHPRP         -0.0866
1  RRIRHRPPRLPRPRPRPEVKPRP           0.104
2  RRIRIRPPRLPRPRPRPMFNPRP          -0.923
3  RRIRCRPPRLPRPRPRPAMTPRP         -0.0039
4  RRIRERPPRLPRPRPRPQRFPRP          0.0827
5  RRIRMRPPRLPRPRPRPFKVPRP          -0.111
6  RRIRKRPPRLPRPRPRPLFAPRP           0.594
7  RRIRMRPPRLPRPRPRPAAGPRP            1.56
8  RRIRIRPPRLPRPRPRPQRSPRP         -0.0897
9  RRIRRRPPRLPRPRPRPMVTPRP           0.247

# evaluate next
Provide measured shrunken log2 fold change value, entry: RRIRPRPPRLPRPRPRPMDIPRP
-0.158
